Reported pIC50 by item:
Molecular target: JAK3 tyrosine kinase (Homo sapiens)
Sequence (P52333 1-1124): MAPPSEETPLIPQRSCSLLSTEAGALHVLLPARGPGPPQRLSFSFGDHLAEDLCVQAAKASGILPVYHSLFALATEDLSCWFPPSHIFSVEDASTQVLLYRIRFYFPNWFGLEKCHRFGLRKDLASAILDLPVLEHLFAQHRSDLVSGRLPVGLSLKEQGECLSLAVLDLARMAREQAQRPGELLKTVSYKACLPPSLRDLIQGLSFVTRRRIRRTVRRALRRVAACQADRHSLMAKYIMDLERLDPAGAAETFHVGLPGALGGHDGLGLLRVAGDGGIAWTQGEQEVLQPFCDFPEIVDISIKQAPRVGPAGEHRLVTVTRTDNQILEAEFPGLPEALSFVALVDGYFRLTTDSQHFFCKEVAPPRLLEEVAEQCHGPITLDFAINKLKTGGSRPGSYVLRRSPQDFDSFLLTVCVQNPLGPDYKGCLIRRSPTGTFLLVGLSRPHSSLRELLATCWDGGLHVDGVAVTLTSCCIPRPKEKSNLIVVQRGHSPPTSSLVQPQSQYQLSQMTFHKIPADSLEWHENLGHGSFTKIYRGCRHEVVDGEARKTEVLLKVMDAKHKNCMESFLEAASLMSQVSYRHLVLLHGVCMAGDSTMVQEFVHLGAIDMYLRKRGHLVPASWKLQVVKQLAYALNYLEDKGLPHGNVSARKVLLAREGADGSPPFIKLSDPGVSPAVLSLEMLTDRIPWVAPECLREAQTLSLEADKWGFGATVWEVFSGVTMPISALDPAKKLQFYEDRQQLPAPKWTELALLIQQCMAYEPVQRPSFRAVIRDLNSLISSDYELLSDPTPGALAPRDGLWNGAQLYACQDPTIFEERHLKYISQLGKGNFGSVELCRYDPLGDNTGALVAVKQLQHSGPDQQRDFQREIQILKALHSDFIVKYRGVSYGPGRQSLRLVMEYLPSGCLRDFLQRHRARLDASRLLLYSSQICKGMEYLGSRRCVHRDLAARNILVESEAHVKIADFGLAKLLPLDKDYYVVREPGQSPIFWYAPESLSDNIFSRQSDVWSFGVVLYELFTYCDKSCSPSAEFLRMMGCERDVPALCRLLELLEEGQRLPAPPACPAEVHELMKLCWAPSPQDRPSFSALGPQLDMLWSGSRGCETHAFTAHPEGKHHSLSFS
Structures can show the parent of a compound that is named as a salt.
pIC50 is defined as minus the log10 of a concentration measured in mol/L.

- COMPOUND: "C[C@H](Nc1nc(Nc2cnccn2)cc(N2C[C@H](O)[C@@H](O)C2)n1)c1ccc(F)cc1"
  pIC50: 7.36
- COMPOUND: "C[C@H](Nc1cc(-c2ccc(C(N)=O)cc2)cc(Nc2cnccn2)n1)c1ccc(F)cc1 [Example 115, dihydrochloride]"
  pIC50: 6.68
- COMPOUND: "C[C@H](Nc1nc(Nc2cnccn2)cc(N2CCCC2)n1)c1ccc(F)cc1"
  pIC50: 7.23
- COMPOUND: "CC(C)NC(=O)c1cc(Nc2cnccn2)nc(N[C@@H](C)c2ccc(F)cc2)c1"
  pIC50: 6.41
- COMPOUND: "CCCCNC(=O)c1cc(Nc2cnccn2)nc(N[C@@H](C)c2ccc(F)cc2)c1"
  pIC50: 6.30
- COMPOUND: "C[C@H](Nc1cc(Nc2cnccn2)cc(Nc2cnccn2)n1)c1ccc(F)cc1"
  pIC50: 6.80
- COMPOUND: "C[C@H](Nc1cc(C(=O)N2CCCC2)cc(Nc2cnccn2)n1)c1ccc(F)cc1"
  pIC50: 6.47
- COMPOUND: "C[C@H](Nc1nc(Nc2cnccn2)cc(N2CCC3(CC2)OCCO3)n1)c1ccc(F)cc1"
  pIC50: 6.96

INPUT: Could you tell me which pIC50 is on file for "C[C@H](Nc1nc(Nc2cnccn2)cc(-c2cc[nH]c2)n1)c1ccc(F)cc1" ?
OUTPUT: 7.43

INPUT: For C[C@H](Nc1cc(-c2ccc(S(C)(=O)=O)cc2)cc(Nc2cnccn2)n1)c1ccc(F)cc1 [Example 36, hydrochloride] , what is its reported pIC50?
OUTPUT: 6.70

INPUT: Consider the compound "CCOC(=O)C1CCN(c2cc(Nc3cnccn3)nc(N[C@@H](C)c3ccc(F)cc3)n2)CC1" and give its measured pIC50.
OUTPUT: 7.24

INPUT: Suppose we examine the compound CC(=O)N[C@H]1CCN(c2cc(Nc3cnccn3)nc(N[C@@H](C)c3ccc(F)cc3)n2)C1 [Example 33, maleate] ; what pIC50 value has been reported?
OUTPUT: 7.52

INPUT: Form field: reported pIC50 of COC1(C2CC2)CN(c2cc(Nc3cnccn3)nc(N[C@@H](C)c3ccc(F)cc3)c2)C1 [Example 211, hydrochloride]
OUTPUT: 7.07

INPUT: Quick one: pIC50 of C[C@H](Nc1cc(-c2cc[nH]c2)cc(Nc2cnccn2)n1)c1ccc(F)cc1 [Example 116, dihydrochloride] ?
OUTPUT: 6.47

INPUT: Item Cc1cnc(CNc2cc(Nc3cnccn3)nc(N[C@@H](C)c3ccc(F)cc3)n2)cn1 [Example 102, hydrochloride] has what recorded pIC50?
OUTPUT: 6.85

----------
Quick list: IC50 per entry.
Biological target: JAK2 tyrosine kinase (Homo sapiens, UniProt O60674)
Construct: purchased Carnabioscience Co
Sequence (O60674 whole entry): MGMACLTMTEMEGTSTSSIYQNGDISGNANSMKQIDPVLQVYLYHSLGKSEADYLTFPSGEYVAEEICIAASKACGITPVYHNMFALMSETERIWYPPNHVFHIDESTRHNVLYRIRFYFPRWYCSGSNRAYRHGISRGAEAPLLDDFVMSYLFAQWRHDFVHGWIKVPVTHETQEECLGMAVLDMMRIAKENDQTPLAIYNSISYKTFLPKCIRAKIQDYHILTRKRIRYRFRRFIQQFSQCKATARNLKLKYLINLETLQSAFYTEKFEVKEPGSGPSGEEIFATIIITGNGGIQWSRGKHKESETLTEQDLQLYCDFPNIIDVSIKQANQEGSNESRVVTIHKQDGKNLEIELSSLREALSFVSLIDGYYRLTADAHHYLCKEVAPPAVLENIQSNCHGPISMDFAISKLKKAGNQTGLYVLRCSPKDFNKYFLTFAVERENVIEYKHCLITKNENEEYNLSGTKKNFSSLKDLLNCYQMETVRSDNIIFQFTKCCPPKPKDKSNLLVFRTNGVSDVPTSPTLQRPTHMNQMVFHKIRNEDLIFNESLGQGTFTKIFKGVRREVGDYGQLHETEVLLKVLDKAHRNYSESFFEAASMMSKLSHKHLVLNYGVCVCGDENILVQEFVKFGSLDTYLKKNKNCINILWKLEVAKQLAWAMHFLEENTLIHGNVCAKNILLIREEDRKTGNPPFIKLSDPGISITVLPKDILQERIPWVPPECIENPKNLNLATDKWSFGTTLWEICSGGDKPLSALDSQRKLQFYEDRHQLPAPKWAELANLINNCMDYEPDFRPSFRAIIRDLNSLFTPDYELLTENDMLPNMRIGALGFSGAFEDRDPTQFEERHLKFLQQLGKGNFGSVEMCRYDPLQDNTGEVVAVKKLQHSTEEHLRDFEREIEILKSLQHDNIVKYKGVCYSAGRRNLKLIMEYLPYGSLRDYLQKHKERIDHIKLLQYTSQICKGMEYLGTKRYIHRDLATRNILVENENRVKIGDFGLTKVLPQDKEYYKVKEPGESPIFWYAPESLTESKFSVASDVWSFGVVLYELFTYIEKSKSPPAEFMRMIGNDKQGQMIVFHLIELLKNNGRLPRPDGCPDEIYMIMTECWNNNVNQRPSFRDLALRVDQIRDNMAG
Assay: Test 1: inhibitory activity to JAK2 tyrosine kinase (ELISA)
Assay type: biochemical
Conditions: 25 μM ATP in substrate solution, 30° C. for 1 hour, n=2
Where a name gives a salt, the structure may show the parent alone.
Number only, in nM; omit the unit.

Would you please look over these solved cases?
- MOLECULE: "C[C@H](Nc1nc(Nc2cnccn2)cc(-c2ccncc2)n1)c1ccc(F)cc1"
  ENDPOINT_RESULT: 1.3
- MOLECULE: "C[C@H](Nc1nc(NCCN)cc(Nc2cnccn2)n1)c1ccc(F)cc1 [Example 76, dihydrochloride]"
  ENDPOINT_RESULT: 2.5
- MOLECULE: "C[C@H](Nc1nc(Nc2cnccn2)ccc1C(=O)N1CCOCC1)c1ccc(F)cc1 [Example 188, dihydrochloride]"
  ENDPOINT_RESULT: 3.7
- MOLECULE: "C[C@H](Nc1nc(Nc2cnccn2)cc(N2CCC[C@H]2CO)n1)c1ccc(F)cc1"
  ENDPOINT_RESULT: 2.6
- MOLECULE: "CCCCNC(=O)c1cc(Nc2cnccn2)nc(N[C@@H](C)c2ccc(F)cc2)c1"
  ENDPOINT_RESULT: 3
- MOLECULE: "C[C@H](Nc1nc(Nc2cnccn2)cc(N2CCCC(O)C2)n1)c1ccc(F)cc1 (stereo partly shown) [Example 73, hydrochloride]"
  ENDPOINT_RESULT: 1.3

INPUT: Please give the measured IC50 for this molecule: "C[C@H](Nc1nc(Nc2cnccn2)cc(-c2cncs2)n1)c1ccc(F)cc1"
OUTPUT: 2.3

INPUT: Could you share which IC50 value was measured for C[C@H](Nc1nc(NCCN(C)C)cc(Nc2cnccn2)n1)c1ccc(F)cc1 [Example 62, dihydrochloride] ?
OUTPUT: 2.2

INPUT: Give the measured IC50 of C[C@H](Nc1nc(Nc2cnccn2)cc(O[C@H]2CCCC[C@@H]2O)n1)c1ccc(F)cc1 [Example 101, hydrochloride] .
OUTPUT: 11

INPUT: Endpoint output: IC50 of COc1ccc(-c2cc(Nc3cnccn3)nc(N[C@@H](C)c3ccc(F)cc3)n2)cn1 [Example 23, hydrochloride] . Value?
OUTPUT: 4.2

----------
Molecular target: JAK2 tyrosine kinase (Homo sapiens, UniProt O60674)
Counter-ions that a name gives are not always drawn.
PROPERTY_LABEL: pIC50
Give only the number. pIC50 is defined as minus log10 of concentration in molar units.

These recorded examples may help you get a feel for the data.
- COMPOUND: "CC(=O)N[C@H]1CCN(c2cc(Nc3cnccn3)nc(N[C@@H](C)c3ccc(F)cc3)c2)C1 [Example 38, hydrochloride]"
  pIC50: 8.64
- COMPOUND: "C[C@H](Nc1cc(N2CC(C)(O)C2)cc(Nc2cnccn2)n1)c1ccc(F)cc1 [Example 205, hydrochloride]"
  pIC50: 8.55
- COMPOUND: "CC(=O)NCC1CN(c2cc(Nc3cnccn3)nc(N[C@@H](C)c3ccc(F)cc3)n2)C1"
  pIC50: 9.26
- COMPOUND: "C[C@H](Nc1cc(N2CCN(S(C)(=O)=O)CC2)cc(Nc2cnccn2)n1)c1ccc(F)cc1 [Example 124, hydrochloride]"
  pIC50: 8.89

Moving on to the next compound.
INPUT: For JAK2 tyrosine kinase (Homo sapiens, UniProt O60674), provide pIC50 of "C[C@H](Nc1nc(Nc2cnccn2)cc(N2CC(N3CCC(O)CC3)C2)n1)c1ccc(F)cc1" please.
OUTPUT: 9.16
